Form field: Platelet aggregation remaining after TRAP (low = inhibition) (one value per entry).
- Test system: TRAP-activated platelets
- PROTOCOL SUMMARY: Inhibition of TRAP-induced platelet aggregation after pre-incubation with peptide
- Type: cell-based, human (healthy volunteers)
- CONDITION DETAILS: S3 Table; peptide 5 μM; aggregation after TRAP; n=3

These recorded examples may help you get a feel for the data.
Pal-LGKKPIYKK-APTNEFYA [pal-SDC4-middle U SDC4-tail, palmitylated chimeric peptide of SDC4 middle and tail regions] | 63
pal-KVGAAKR-FAKFEEERAR [B14p ITGA2b-JM2 U ITGB3-middle1, palmitylated chimeric peptide] | 71
Pal-RMKKKDEGSYD-APTNEFYA [pal-SDC4-JM U SDC4-tail, palmitylated chimeric peptide of SDC4 juxtamembrane and tail regions] | 63
pal-KVGAAKR [pal-ITGA2bJM2] | 28
pal-KVGAAKR-LGKKPIYKK [B19p ITGA2b-JM2 U SDC4-middle, palmitylated chimeric peptide] | 66

Let us move to another entry and its Platelet aggregation remaining after TRAP (low = inhibition).
Q: Requested field: Platelet aggregation remaining after TRAP (low = inhibition). Item: pal-FAKFEEERAR-(NH2) [pal-ITGB3_middle1, N-terminally palmitylated ITGB3 peptide …]
A: 73

Origin of the recorded values: paper PMC6349357
